- STUDY SYSTEM: TNFα (Homo sapiens, UniProt P01375)
- Sequence (P01375 77-233 limits assumed): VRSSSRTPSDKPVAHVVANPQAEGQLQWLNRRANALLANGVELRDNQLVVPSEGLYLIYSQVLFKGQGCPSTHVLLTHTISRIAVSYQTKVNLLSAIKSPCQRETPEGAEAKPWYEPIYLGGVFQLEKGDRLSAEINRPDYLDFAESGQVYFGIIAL
- PROCEDURE DETAILS: TNF-Induced HEK-Blue Assay
- Format: cell-based
- REPORTED CONDITIONS: HEK-Blue-CD40L cells, NF-kB-driven secreted alkaline phosphatase reporter; TNFα 0.5 ng/ml; 18 h; read-out: TNF induced HEK-Blue assay IC50 value
Positions of bridges follow the written chain, without caps; N, C: chain ends. Non-standard residues stand in square brackets, D forms with d. Residues, ends and D or L forms follow the SMILES beside them. Bip(4'-COOH) = N[C@@H](Cc1ccc(-c2ccc(C(=O)O)cc2)cc1)C(=O)O; Bip(4'-NHAc) = CC(=O)Nc1ccc(-c2ccc(C[C@H](N)C(=O)O)cc2)cc1; Bip = N[C@@H](Cc1ccc(-c2ccccc2)cc1)C(=O)O; 2Thi = N[C@@H](Cc1cccs1)C(=O)O; Cha = N[C@@H](CC1CCCCC1)C(=O)O; Sar = CNCC(=O)O
Record form. Attribute: IC50. Fill in for each entry.

CC(=O)Nc1ccc(-c2ccc(C[C@@H]3NC(=O)[C@H](Cc4ccc(-c5ccc(C(=O)O)cc5)cc4)NC(=O)[C@H](CC4CCCCC4)NC(=O)CSC[C@@H](C(=O)NCC(N)=O)NC(=O)[C@H](CC(C)C)NC(=O)[C@H](Cc4cccs4)NC(=O)[C@H](C(C)C)NC(=O)[C@@H]4CCCN4C(=O)[C@H](C(C)C)NC(=O)[C@@H](CCCNC(=N)N)NC(=O)[C@H](CC(=O)O)NC(=O)[C@@H]4CCCN4C(=O)CN(C)C3=O)cc2)cc1 [Example 245] ({CH2CO}-[Cha][Bip(4'-COOH)][Bip(4'-NHAc)][Sar]PD[dR]VPV[2Thi]LCG-NH2; thioether N-13) = 0.2 to 2 µM

Using the record for CC(C)C[C@@H]1NC(=O)CSC[C@@H](C(=O)NCC(N)=O)NC(=O)[C@H](CC(C)C)NC(=O)[C@H](CCCNC(=N)N)NC(=O)[C@H](C(C)C)NC(=O)[C@@H]2CCCN2C(=O)[C@H](C(C)C)NC(=O)[C@H](CCCNC(=N)N)NC(=O)[C@H](CC(=O)O)NC(=O)[C@@H]2CCCN2C(=O)CN(C)C(=O)[C@H](Cc2ccc(-c3ccccc3)cc2)NC(=O)[C@H](Cc2ccc(-c3ccccc3)cc2)NC1=O [Example 8] ({CH2CO}-L[Bip][Bip][Sar]PDRVPVRLCG-NH2; thioether N-13) , report its IC50. 0.2 to 2 µM
